The measured values listed here are drawn from ChEMBL document CHEMBL5537111.

- Procedure Summary: Inhibition of SARS-CoV-2 3CL protease Q189A mutant by FRET assay
- Parameters: species or system Severe acute respiratory syndrome coronavirus 2
Reported Endpoint: IC50 (µM)
Form entry: value (µM) — number only.

Short answer for CC1(C)CCC(CN2CCN(c3ccc(C(=O)NS(=O)(=O)c4ccc(NCC5CCOCC5)c([N+](=O)[O-])c4)c(Oc4cnc5[nH]ccc5c4)c3)CC2)=C(c2ccc(Cl)cc2)C1 : IC50 was 3.18
